Data credit: ChEMBL document CHEMBL3400130

System Name: Mitogen-activated protein kinase kinase kinase 5 (Homo sapiens, UniProt Q99683)
Sequence (Q99683 whole entry): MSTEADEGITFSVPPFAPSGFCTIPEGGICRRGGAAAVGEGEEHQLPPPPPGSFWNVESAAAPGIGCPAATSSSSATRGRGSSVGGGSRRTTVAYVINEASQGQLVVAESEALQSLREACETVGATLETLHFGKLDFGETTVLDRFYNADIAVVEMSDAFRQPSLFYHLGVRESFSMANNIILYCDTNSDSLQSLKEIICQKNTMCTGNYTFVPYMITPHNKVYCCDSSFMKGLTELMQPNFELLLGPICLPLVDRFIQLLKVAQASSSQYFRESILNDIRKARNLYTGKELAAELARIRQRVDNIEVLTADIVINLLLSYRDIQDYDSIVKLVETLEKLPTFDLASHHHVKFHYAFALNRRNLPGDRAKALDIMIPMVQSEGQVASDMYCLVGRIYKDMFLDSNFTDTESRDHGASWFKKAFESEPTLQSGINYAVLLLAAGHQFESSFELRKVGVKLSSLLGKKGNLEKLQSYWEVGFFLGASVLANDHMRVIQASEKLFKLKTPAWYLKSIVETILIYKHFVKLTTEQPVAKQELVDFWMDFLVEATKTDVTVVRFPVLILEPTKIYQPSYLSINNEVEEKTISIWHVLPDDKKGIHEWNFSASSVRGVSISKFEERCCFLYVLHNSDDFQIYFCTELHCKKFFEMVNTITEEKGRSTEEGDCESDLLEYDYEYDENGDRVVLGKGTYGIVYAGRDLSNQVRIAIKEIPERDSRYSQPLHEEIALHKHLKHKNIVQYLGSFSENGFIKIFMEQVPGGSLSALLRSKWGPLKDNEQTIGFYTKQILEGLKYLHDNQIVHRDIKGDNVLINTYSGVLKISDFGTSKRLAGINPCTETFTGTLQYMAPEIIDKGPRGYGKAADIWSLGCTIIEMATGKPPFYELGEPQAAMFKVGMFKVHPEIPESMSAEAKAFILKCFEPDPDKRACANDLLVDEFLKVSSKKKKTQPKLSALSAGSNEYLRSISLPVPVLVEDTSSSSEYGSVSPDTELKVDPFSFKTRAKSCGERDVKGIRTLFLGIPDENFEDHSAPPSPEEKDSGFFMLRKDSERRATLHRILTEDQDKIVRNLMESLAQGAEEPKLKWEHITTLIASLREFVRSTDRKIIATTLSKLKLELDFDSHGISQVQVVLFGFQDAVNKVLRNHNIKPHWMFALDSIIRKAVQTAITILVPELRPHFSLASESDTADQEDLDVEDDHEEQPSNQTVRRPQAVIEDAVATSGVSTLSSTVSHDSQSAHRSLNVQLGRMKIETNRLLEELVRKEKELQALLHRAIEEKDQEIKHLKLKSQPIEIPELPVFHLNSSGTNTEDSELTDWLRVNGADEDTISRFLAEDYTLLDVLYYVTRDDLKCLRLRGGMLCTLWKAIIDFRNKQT
Test Name: Inhibition of recombinant ASK1 catalytic subunit (unknown origin) using MBP substrate and gamma-labeled 32P ATP incubated for 20 mins by liquid scintillation counting method
Assay Readout: IC50 (µM)

> print(dat)
                                   molecule  recorded.number
1  CCOc1ccc(C(=O)C2=C(O)C(=O)N(c3nc4ccc(C)cc4s3)C2c2ccc(F)cc2)cc1 (stereo not drawn)              5.5
2  CCOc1ccc2nc(N3C(=O)C(O)=C(C(=O)c4ccccc4)C3c3ccc(C(C)(C)C)cc3)sc2c1 (stereo not drawn)                5
3  O=C(C1=C(O)C(=O)N(c2nc3ccc(F)cc3s2)C1c1cccc(Cl)c1)c1ccco1 (stereo not drawn)             28.2
4  CCCCCOc1ccc(C2C(C(=O)c3ccc4c(c3)CC(C)O4)=C(O)C(=O)N2c2nc3ccc(F)cc3s2)cc1 (stereo not drawn)             0.75
5  Cc1ccc(C(=O)C2=C(O)C(=O)N(c3nc4ccc(F)cc4s3)C2c2ccc(C(C)(C)C)cc2)cc1 (stereo not drawn)              7.6
6  Cc1cc(C)c2nc(N3C(=O)C(O)=C(C(=O)c4ccc(C)o4)C3c3ccc(C(C)C)cc3)sc2c1 (stereo not drawn)                2
7  Cc1ccc(C(=O)C2=C(O)C(=O)N(c3nc4ccc(F)cc4s3)C2c2ccc(C(C)(C)C)cc2)o1 (stereo not drawn)             1.55
8  Cc1ccc2nc(N3C(=O)C(O)=C(C(=O)c4ccc(F)cc4)C3c3ccc(Cl)cc3)sc2c1 (stereo not drawn)              2.9

====

System Name: Angiopoietin-1 receptor (Homo sapiens) (UniProt Q02763)
Sequence (Q02763 whole entry): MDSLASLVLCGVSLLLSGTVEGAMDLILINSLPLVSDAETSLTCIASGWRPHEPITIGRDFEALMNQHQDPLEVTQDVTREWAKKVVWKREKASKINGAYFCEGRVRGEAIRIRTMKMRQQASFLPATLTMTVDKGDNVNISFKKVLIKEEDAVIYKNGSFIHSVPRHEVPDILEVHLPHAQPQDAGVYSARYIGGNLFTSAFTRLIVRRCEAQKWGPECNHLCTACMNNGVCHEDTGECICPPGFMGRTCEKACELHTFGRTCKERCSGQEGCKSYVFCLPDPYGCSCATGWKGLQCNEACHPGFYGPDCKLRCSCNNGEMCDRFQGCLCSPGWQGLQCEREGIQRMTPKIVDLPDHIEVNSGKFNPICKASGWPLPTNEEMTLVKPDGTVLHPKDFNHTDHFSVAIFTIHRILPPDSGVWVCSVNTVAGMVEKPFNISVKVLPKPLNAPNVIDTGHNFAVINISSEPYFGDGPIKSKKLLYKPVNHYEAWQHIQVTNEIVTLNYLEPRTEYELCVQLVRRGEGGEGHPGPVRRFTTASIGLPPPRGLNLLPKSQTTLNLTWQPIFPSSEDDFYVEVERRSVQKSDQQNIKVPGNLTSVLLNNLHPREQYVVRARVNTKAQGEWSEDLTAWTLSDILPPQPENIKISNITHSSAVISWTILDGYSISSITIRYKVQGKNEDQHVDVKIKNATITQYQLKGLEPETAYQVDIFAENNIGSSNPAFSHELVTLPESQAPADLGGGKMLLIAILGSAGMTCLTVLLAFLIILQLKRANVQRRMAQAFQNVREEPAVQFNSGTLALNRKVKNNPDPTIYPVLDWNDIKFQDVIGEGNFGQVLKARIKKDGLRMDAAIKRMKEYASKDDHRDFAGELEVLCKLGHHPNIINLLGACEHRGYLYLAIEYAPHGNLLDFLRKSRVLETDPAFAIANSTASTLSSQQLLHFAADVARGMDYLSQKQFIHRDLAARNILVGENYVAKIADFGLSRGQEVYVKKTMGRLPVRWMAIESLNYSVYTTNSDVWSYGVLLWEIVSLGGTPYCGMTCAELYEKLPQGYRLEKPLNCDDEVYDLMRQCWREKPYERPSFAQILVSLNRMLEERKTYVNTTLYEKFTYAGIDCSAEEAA
Test Name: Inhibition of Tie2 (unknown origin) assessed as residual enzyme activity at 10 uM using TK Substrate 2 (poly Glu-Tyr) substrate
// boundary case: Activity equal to 70% maps to n; strictly smaller maps to y

> print(dat)
                                   compound  label.class
1  CCOc1ccc2nc(N3C(=O)C(O)=C(C(=O)c4ccccc4)C3c3ccc(Cl)cc3)sc2c1 (stereo unspecified)            y
2  Cc1ccc(C(=O)C2=C(O)C(=O)N(c3nc4ccc(F)cc4s3)C2c2ccc(C(C)(C)C)cc2)o1 (stereo unspecified)            n
3  COc1ccc2nc(N3C(=O)C(O)=C(C(=O)c4ccco4)C3c3ccc(Cl)cc3)sc2c1 (stereo unspecified)            y
4  CCOc1ccc2nc(N3C(=O)C(O)=C(C(=O)c4ccc(C)cc4)C3c3ccc(C(C)(C)C)cc3)sc2c1 (stereo unspecified)            n
5  CCCCCOc1ccc(C2C(C(=O)c3ccc4c(c3)OCCO4)=C(O)C(=O)N2c2nc3ccc(C)cc3s2)cc1 (stereo unspecified)            y

====

# key: entry, value: IC50
System Name: Mitogen-activated protein kinase kinase kinase 5 (Homo sapiens)
Test Name: Inhibition of recombinant ASK1 catalytic subunit (unknown origin) using MBP substrate and gamma-labeled 32P ATP incubated for 20 mins by liquid scintillation counting method
Assay Readout: IC50

> print(dat)
                                   molecule  assay.readout   result
1  COc1ccccc1C1C(C(=O)c2ccc(C)o2)=C(O)C(=O)N1c1nc2c(C)cc(C)cc2s1 (stereo not drawn)           IC50  35.5 µM
2  Cc1cc(C)c2nc(N3C(=O)C(O)=C(C(=O)c4ccco4)C3c3ccccc3)sc2c1 (stereo not drawn)           IC50    63 µM
3  CCCOc1ccc(C2C(C(=O)c3ccc4c(c3)OCCO4)=C(O)C(=O)N2c2nc3ccc(C)cc3s2)cc1 (stereo not drawn)           IC50     2 µM
4  CC(C)CCOc1cccc(C2C(C(=O)c3ccc4c(c3)CC(C)O4)=C(O)C(=O)N2c2nc3ccc(F)cc3s2)c1 (stereo not drawn)           IC50  0.52 µM
5  CCCCOc1ccc(C2C(C(=O)c3ccc4c(c3)OCCO4)=C(O)C(=O)N2c2nc3ccc(C)cc3s2)cc1 (stereo not drawn)           IC50   4.6 µM
6  CCCOc1ccc(C2C(C(=O)c3ccc4c(c3)OCCO4)=C(O)C(=O)N2c2nc3ccc(Cl)cc3s2)cc1 (stereo not drawn)           IC50     5 µM
7  Cc1ccc2nc(N3C(=O)C(O)=C(C(=O)c4ccco4)C3c3cccc(Br)c3)sc2c1 (stereo not drawn)           IC50    31 µM
8  COc1ccc2nc(N3C(=O)C(O)=C(C(=O)c4ccco4)C3c3ccc(Cl)cc3)sc2c1 (stereo not drawn)           IC50   4.2 µM

====

System Name: UniProt:O14965
Sequence (O14965 whole entry): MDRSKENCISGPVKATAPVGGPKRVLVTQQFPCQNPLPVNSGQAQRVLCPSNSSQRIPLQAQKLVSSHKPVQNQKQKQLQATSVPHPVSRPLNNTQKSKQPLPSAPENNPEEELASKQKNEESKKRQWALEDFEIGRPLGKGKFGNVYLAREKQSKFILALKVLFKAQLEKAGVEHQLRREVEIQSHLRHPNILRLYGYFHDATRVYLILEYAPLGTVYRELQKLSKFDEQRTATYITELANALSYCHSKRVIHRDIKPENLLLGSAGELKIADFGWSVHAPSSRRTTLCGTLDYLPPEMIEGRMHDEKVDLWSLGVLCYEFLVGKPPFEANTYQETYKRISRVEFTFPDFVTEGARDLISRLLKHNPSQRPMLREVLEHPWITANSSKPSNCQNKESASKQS
Test Name: Inhibition of Aurora A (unknown origin) assessed as residual enzyme activity at 10 uM using kemptide substrate
Assay Readout: Activity (%)

> print(dat)
                                   compound  unit.of.measure  recorded.number
1  CCCOc1ccc(C2C(C(=O)c3ccc4c(c3)OCCO4)=C(O)C(=O)N2c2nc3ccc(C)cc3s2)cc1 (stereo not drawn)                %             49.5
2  COc1ccc2nc(N3C(=O)C(O)=C(C(=O)c4ccco4)C3c3ccc(Cl)cc3)sc2c1 (stereo not drawn)                %             48.1
3  CCCCOc1ccc(C2C(C(=O)c3ccc4c(c3)OCCO4)=C(O)C(=O)N2c2nc3ccc(Cl)cc3s2)cc1OCC (stereo not drawn)                %             28.8
4  CCCCOc1ccc(C2C(C(=O)c3ccc4c(c3)OCCO4)=C(O)C(=O)N2c2nc3ccc(C)cc3s2)cc1 (stereo not drawn)                %             20.5
5  CCCCCOc1ccc(C2C(C(=O)c3ccc4c(c3)OCCO4)=C(O)C(=O)N2c2nc3ccc(C)cc3s2)cc1 (stereo not drawn)                %             28.1
6  CC(C)CCOc1cccc(C2C(C(=O)c3ccc4c(c3)CC(C)O4)=C(O)C(=O)N2c2nc3ccc(F)cc3s2)c1 (stereo not drawn)                %             44.7
7  CCOc1ccc2nc(N3C(=O)C(O)=C(C(=O)c4ccc(C)cc4)C3c3ccc(C(C)(C)C)cc3)sc2c1 (stereo not drawn)                %               52
8  O=C(C1=C(O)C(=O)N(c2nc3ccc(F)cc3s2)C1c1cccc(Cl)c1)c1cccs1 (stereo not drawn)                %             28.1

====

# key: entry, value: Activity
System Name: Angiopoietin-1 receptor (Homo sapiens)
Test Name: Inhibition of Tie2 (unknown origin) assessed as residual enzyme activity at 10 uM using TK Substrate 2 (poly Glu-Tyr) substrate
Assay Readout: Activity (%)

> print(dat)
                                   compound  assay.readout  unit.of.measure  recorded.number
1  CC(C)CCOc1cccc(C2C(C(=O)c3ccc4c(c3)CC(C)O4)=C(O)C(=O)N2c2nc3ccc(F)cc3s2)c1 (stereo not drawn)       Activity                %              100
2  CCCCOc1ccc(C2C(C(=O)c3ccc4c(c3)OCCO4)=C(O)C(=O)N2c2nc3ccc(Cl)cc3s2)cc1OCC (stereo not drawn)       Activity                %             78.8
3  CCCOc1ccc(C2C(C(=O)c3ccc4c(c3)OCCO4)=C(O)C(=O)N2c2nc3ccc(C)cc3s2)cc1 (stereo not drawn)       Activity                %             99.2
4  CCCCOc1ccc(C2C(C(=O)c3ccc4c(c3)OCCO4)=C(O)C(=O)N2c2nc3ccc(C)cc3s2)cc1 (stereo not drawn)       Activity                %             94.2
5  CCCCOc1ccc(C2C(C(=O)c3ccc4c(c3)OCCO4)=C(O)C(=O)N2c2nc3ccc(Cl)cc3s2)cc1 (stereo not drawn)       Activity                %              100
6  O=C(C1=C(O)C(=O)N(c2nc3ccc(F)cc3s2)C1c1cccc(Cl)c1)c1cccs1 (stereo not drawn)       Activity                %             63.5
7  CC(C)(C)c1ccc(C2C(C(=O)c3ccc4c(c3)OCCO4)=C(O)C(=O)N2c2nc3ccc(Cl)cc3s2)cc1 (stereo not drawn)       Activity                %             92.5
8  CCOc1ccc2nc(N3C(=O)C(O)=C(C(=O)c4cccs4)C3c3ccc(C)cc3)sc2c1 (stereo not drawn)       Activity                %             83.2
